Documented % Edema Inhibition across a set of molecules
- Test system: carragenin-induced edema
- Assay summary: Carragenin-induced edema test (Winter)
- Format: in vivo, rat
- Conditions used: OS, 50 mg/kg, 3 h
- Description: This effect was measured with an experimental model reproducing acute inflammation in rats: the carragenin-induced edema test according to C.
Parameter: % Edema Inhibition

Molecule | Result
Cc1ccc(C(=O)c2ccc(CC(=O)NCC(=O)OCCn3cnc4c3c(=O)n(C)c(=O)n4C)n2C)cc1 [(E)] | 54,4%
Cc1ccc(C(=O)c2ccc(CC(=O)O)n2C)cc1 [Na Tolmetin 2H2 O, reference compound] | 49,0%
Cn1c(=O)c2c(ncn2CCCOC(=O)Cc2ccc(-n3cccc3)cc2)n(C)c1=O | 53,1%
Cc1ccc(C(=O)c2ccc(CC(=O)OC(Cn3cnc4c3c(=O)n(C)c(=O)n4C)Cn3cnc4c3c(=O)n(C)c(=O)n4C)n2C)cc1 | 47,0%
Cc1ccc(C(=O)c2ccc(CC(=O)OCCn3cnc4c3c(=O)n(C)c(=O)n4C)n2C)cc1 | 52,0%
